- measurementDescription: basal RPMI8226 mitochondrial membrane potential changes, profiling panel, cell-based, JC-1 fluorescence, 24 h, 100 nL compound (AID 1169)
- measurementConditions: RPMI8226 myeloma, JC-1 mitochondrial potential fluorescence, higher = more signal
The entries below come with measured z-score values attached.
assayReadout: z-score

>>> reportedmeasurement("Cc1ccc(S[C@]2(C(=O)O)CC(=O)N(Cc3cc(C(F)(F)F)cc(C(F)(F)F)c3)[C@@H]2c2ccc(CO)cc2I)cc1")
-0.325
>>> reportedmeasurement("NC(=O)[C@H]1[C@@H]2C(=O)O[C@@H](c3ccccc3)[C@@H](c3ccccc3)N2[C@@H](c2ccc(O)cc2)[C@]12C(=O)Nc1ccc(C#CCCO)cc12")
-0.583
>>> reportedmeasurement("COc1cc2c(cc1OC)CN(C(=O)[C@@H]1[C@H]3C(=O)O[C@H](c4ccccc4)[C@H](c4ccccc4)N3[C@H](c3ccccc3OCCO)[C@@]13C(=O)Nc1ccccc13)CC2")
-0.509
>>> reportedmeasurement("C[C@H]1COC(=O)[C@H](Cc2ccccc2)NC(=O)[C@@H](C)COC(=O)[C@H](Cc2ccccc2)NC1=O")
-0.405

====

- measurementDescription: MM1S myeloma cell viability, profiling panel, resazurin fluorescence, basal, 24 h, PK04 Diversity Set (AID 1174);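 note: MM1S multiple myeloma cell line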
- measurementConditions: higher = more signal, called active from +8 up or from −8 down
The entries below come with measured z-score values attached.
assayReadout: z-score

>>> reportedmeasurement("CCOC(=O)C[C@H]1[C@H](OC(=O)Cc2ccc3c(c2)OCO3)[C@@H](NC(=O)CC(C)C)c2cc(OCCCO)ccc2N1C(=O)c1ccccc1")
0.548
>>> reportedmeasurement("CC(C)C[C@@H]1NC(=O)[C@H](CC(C)C)NC(=O)[C@@]23C(=O)N[C@@H](Cc4ccccc4)C2[C@H](C)[C@@]2(C)O[C@H]2C3/C=C/CC/C=C/CNC1=O (some centres not stated)")
0.229
>>> reportedmeasurement("C=C(CCCC)/C(=C/C[C@H](OC(=O)c1ccncc1)c1cccc(OCCO)c1)c1cc(C(=O)OC)ccc1OC")
0.585
>>> reportedmeasurement("CN(C)c1ccc(C(O)C2C=CC3C(=O)NC(=O)C3N2Nc2ccc(Cl)cc2Cl)cc1 (configuration not stated)")
-1.44
>>> reportedmeasurement("CC(c1ccccc1)C(O)C1C=CC2C(=O)N(C)C(=O)C2N1N(c1ccccc1)c1ccccc1 (configuration not stated)")
-1.91
>>> reportedmeasurement("COCCOC(=O)N1C(=O)[C@@]2(c3cc(C#CCCO)ccc31)[C@H](c1ccc(OCCO)cc1)N1[C@H](c3ccccc3)[C@H](c3ccccc3)OC(=O)[C@H]1[C@@H]2C(=O)NC[C@H](O)c1ccccc1")
-0.149
>>> reportedmeasurement("CC(C)(C)OC(=O)CC[C@]1(C(=O)N2CCCCC2)N=C(c2ccc(OCCCO)cc2)O[C@H]1c1ccccc1")
-1.37

====

- System: XIP peptide (Xip251-270) binding
- measurementDescription: small-molecule binders of XIP peptide, primary screen, biochemical, small-molecule microarray, fluorescence 635/667 nm, 0.1 µg/mL protein (AID 1182)
- measurementConditions: fluorescent protein binding, 635 nm, higher = more signal, called active from +8 up or from −8 down
assayReadout: composite z-score

>>> reportedmeasurement("CC(C)N1CC=CC23O[C@@H]4/C=C\\CCCOC(=O)C4[C@H]2C(=O)N(CCO)[C@@H]3C1=O (stereo partly specified)")
1.85
>>> reportedmeasurement("Cc1ccc(S[C@]2(C(=O)NC(C)C)CC(=O)N(Cc3cc(C(F)(F)F)cc(C(F)(F)F)c3)[C@@H]2c2ccc(CO)cc2I)cc1")
0.351
>>> reportedmeasurement("COc1ccc([C@H]2C[C@H]3C(Br)=C[C@]2(OC)C(=O)[C@]32CO2)cc1")
0.288
>>> reportedmeasurement("Cc1ccc(S[C@]2(C(=O)NCCCN(C)C)CC(=O)N(Cc3ccccc3)[C@@H]2c2ccc(CO)cc2I)cc1")
0.066
>>> reportedmeasurement("CC(C)[Si]1(C(C)C)OCc2cc(C3CC3)nc(-c3ccccc3)c21")
0.119
>>> reportedmeasurement("CC(C)C[C@@H]1NC(=O)[C@H]2C[C@@H](C(=O)NCCCCCC[N+](C)(C)C)[C@@H](c3ccc(O)cc3)N2C1=O")
0.28
>>> reportedmeasurement("C[C@H]1COC(=O)[C@H](Cc2ccccc2)NC(=O)[C@@H](C)COC(=O)[C@H](Cc2ccccc2)NC1=O")
0.767
>>> reportedmeasurement("COCCOC(=O)N1C(=O)[C@@]2(c3cc(C#CC4=CCCCC4)ccc31)[C@H](C(=O)NC[C@H](O)c1ccccc1)[C@H]1C(=O)O[C@H](c3ccccc3)[C@H](c3ccccc3)N1[C@@H]2c1ccc(OCCO)cc1")
-0.361
>>> reportedmeasurement("C=CC(=O)O[C@@H](Cc1ccccc1)[C@H]1C2C=CCCC=C2CN1Cc1cccc(Cl)c1 (stereo partly specified)")
-0.244
>>> reportedmeasurement("COC(=O)c1ccc(C#CC(NP(=O)(c2ccccc2)c2ccccc2)c2ccccc2)cc1 (stereo unspecified)")
0.238
>>> reportedmeasurement("CCOC(=O)C1=C[C@@H](c2ccccc2)N(S(=O)(=O)c2ccc(C)cc2)[C@H]1c1ccc(F)cc1")
0.346
>>> reportedmeasurement("C=CCN1C(=O)[C@@]2(O[C@@H](CCn3cc([C@H](O)c4ccccc4)nn3)[C@H]([Si](C)(C)c3ccc(OC)cc3)[C@H]2C)c2cc(N3CCOC3=O)ccc21")
0.0505
>>> reportedmeasurement("CC1CC/C=C\\[C@H]2OC34C=CCN(Cn5nnc6ccccc65)C(=O)[C@H]3N(C(C)CO)C(=O)[C@@H]4C2C(=O)O1 (stereo partly specified)")
0.205
>>> reportedmeasurement("O=[N+]([O-])c1ccc(C[n+]2ccc3ccc(O)cc3c2)o1")
1.14
>>> reportedmeasurement("Cc1ccc(N2C(=O)c3ccccc3[C@](C)(C(=O)O)[C@@H]2c2ccc(CO)cc2)nc1")
-0.235
>>> reportedmeasurement("Cc1ccc(N2C(=O)c3ccccc3[C@@H](C(=O)NCc3ccccc3)[C@@H]2c2ccc(CO)cc2)nc1")
-0.337
>>> reportedmeasurement("COCC(=C=CC[C@H](O)c1ccc(OCCO)cc1)C[C@H](O)c1ccccn1")
0.495
>>> reportedmeasurement("CO[C@H]1O[C@H](CO)[C@@H](OC(=O)Nc2ccc3c(c2)OCO3)[C@H](OC(=O)Nc2ccccc2)[C@@H]1OC(=O)Nc1ccccc1")
1.06
>>> reportedmeasurement("CCCC/C=C/[C@H]([C@@H](O)Cc1ccccc1)N(CC#Cc1ccccc1)Cc1ccccc1Br")
0.227
>>> reportedmeasurement("CC(C)[C@H]1NC(=O)[C@@]23C(=O)N[C@@H](Cc4ccccc4)C2[C@H](C)[C@@]2(C)O[C@H]2C3/C=C/C/C=C\\CNC(=O)[C@H](C)NC1=O (stereo partly specified)")
-0.311
>>> reportedmeasurement("C=CC[C@@]12N=C(c3ccc(OCCCO)cc3)O[C@@H]1c1ccccc1CN(Cc1ccccc1)C2=O")
1.54
>>> reportedmeasurement("C[C@@H]1CC[C@H]2C(=O)N3[C@@H](CC[C@@H](C)[C@@H]3c3cccc(N4CCOCC4)c3)C(=O)N2[C@H]1c1cccc(N2CCOCC2)c1")
0.66
>>> reportedmeasurement("COC(=O)C1=CC(c2ccc(CO)cc2)=CC(c2cccs2)N(Cc2cccc(OC(F)(F)F)c2)C=C1C(=O)OC (stereo unspecified)")
2.19
>>> reportedmeasurement("C=C(COC)/C(=C/C[C@@H](OC(=O)c1ccncc1)c1ccc(OCCO)cc1)c1cc(C(=O)OC)ccc1OC")
1.08
>>> reportedmeasurement("O=C(CS)NCCCCCNC(=O)[C@H]1C[C@H]2C(=O)N[C@@H](Cc3ccccc3)C(=O)N2[C@H]1c1ccc(O)cc1")
0.818
>>> reportedmeasurement("CCCCCCc1nc(-c2cc(C)c(OC)c(C)c2)cc2c1[Si](C(C)C)(C(C)C)O[C@H]2c1ccccc1")
-0.408
>>> reportedmeasurement("CO[C@H]1COC(=O)CC=C[C@H](C)[C@@H](OC)COC(=O)[C@H](Cc2ccccc2)NC(=O)CC=C[C@@H]1C")
-0.254
>>> reportedmeasurement("CCCC[C@@H]1C[C@H]1[C@@H](NC(=O)c1ccccc1)c1ccccc1C(F)(F)F")
0.715
>>> reportedmeasurement("COCCOC(=O)N1C(=O)[C@@]2(c3cc(C#CCNC(N)=O)ccc31)[C@H](C(=O)N1CCCCCCC1)[C@H]1C(=O)O[C@H](c3ccccc3)[C@H](c3ccccc3)N1[C@@H]2c1ccccc1OCCO")
0.252
>>> reportedmeasurement("CCCCCCc1nc(C2CC2)c(C)c2c1[Si](C(C)C)(C(C)C)OC2")
-0.0485
>>> reportedmeasurement("Cc1ccc(N2C(=O)c3ccccc3[C@@H](C(=O)NCC(F)(F)F)[C@@H]2c2ccc(CO)cc2)nc1")
-0.118
